- Tested on: Caco-2
- Protocol Details: Apparent permeability from basolateral to apical side of human Caco-2 cells
- Assay type: ADME, cell-based
Readout Label: Papp (×10⁻⁶ cm/s)
Give a bare numeral; the unit ×10⁻⁶ cm/s is implied.

> print(dat)
                                   compound  value
1  CCCCN1C(=O)[C@H](CC2CCCCC2)NC(=O)C12CCN(Cc1ccc(Oc3ccc(C(=O)O)cc3)cc1)CC2.Cl   16.8
2  CCCCN1C(=O)[C@H](CC2CCCCC2)NC(=O)C12CCN(Cc1ccc(Oc3ccc(O)cc3)cc1)CC2.Cl   0.14
3  CCCCN1C(=O)C(CC(C)C)NC(=O)C12CCN(Cc1ccc(Oc3ccccc3)cc1)CC2.Cl (racemic)   2.23

The record that follows has no Papp shown yet.
# returns recorded Papp (system: Caco-2) for CCCCN1C(=O)C(CC2CCCCC2)NC(=O)C12CCN(Cc1ccc(Oc3ccccc3)cc1)CC2.Cl (racemic)
0.27

---

- Protocol Details: Volume of distribution at steadt state in rat at 3 mg/kg, iv
- Test Context: in vivo
Readout Label: Vd

For the molecule shown here, CC(C)CC1NC(=O)C2(CCN(Cc3ccc(Oc4ccccc4)cc3)CC2)N(CCC(C)O)C1=O.Cl (racemic) , give the reported Vd.
0.145 L/kg

---

- Protocol Details: Clearance in rat at 3 mg/kg, iv
- Type: ADME, organism-based
- Parameters: dose 3 mg/kg, route intravenous
- Test Context: in vivo
Readout Label: clearance (mL/min/kg)
Give a bare numeral; the unit mL/min/kg is implied.

> print(dat)
                                   compound  readout.label  value
1  CCCCN1C(=O)C(CC2CCCCC2)NC(=O)C12CCN(Cc1ccc(Oc3ccccc3)cc1)CC2.Cl (racemic)      clearance    113

Note: attention shifts to another entry.
Returns the measured clearance for the input compound. Input: CC(C)CC1NC(=O)C2(CCN(Cc3ccc(Oc4ccccc4)cc3)CC2)N(CCC(C)O)C1=O.Cl (racemic)
16

---

pIC50 values, listed per item
- Target Under Test: C-C chemokine receptor type 5 (Homo sapiens)
- Sequence (P51681 whole entry): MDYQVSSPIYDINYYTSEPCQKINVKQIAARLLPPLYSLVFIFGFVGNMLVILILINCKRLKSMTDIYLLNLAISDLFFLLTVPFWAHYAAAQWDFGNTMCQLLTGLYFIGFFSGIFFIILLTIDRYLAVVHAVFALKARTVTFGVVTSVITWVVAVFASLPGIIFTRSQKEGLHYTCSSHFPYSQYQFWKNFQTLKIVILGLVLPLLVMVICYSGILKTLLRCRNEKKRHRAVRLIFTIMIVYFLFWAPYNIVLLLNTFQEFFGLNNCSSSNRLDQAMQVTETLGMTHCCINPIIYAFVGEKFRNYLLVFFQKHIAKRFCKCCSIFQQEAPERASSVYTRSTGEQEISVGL
- Protocol Details: Antagonist activity at human CCR5 receptor expressed in CHO cells assessed as inhibition of MIP-1-alpha-stmulated calcium mobilization
# pIC50 is unitless: minus log10 of the molar concentration; print number only

Sample records with pIC50:
> print(dat)
                                   compound  readout.label  value
1  CCCCN1C(=O)C(CC2CCCCC2)NC(=O)C12CCN(Cc1c[nH]c(-c3ccccc3)n1)CC2 (racemic)          pIC50   6.80
2  CC(C)CC1NC(=O)C2(CCN(Cc3ccc(Oc4ccccc4)cc3)CC2)N(CC(C)C)C1=O.Cl (racemic)          pIC50   6.48
3  CCCCN1C(=O)C(CC2CCCCC2)NC(=O)C12CCN(C(=O)OCc1ccccc1)CC2 (racemic)          pIC50   5.52

Identify the measured pIC50 of CCCCN1C(=O)C(CC2CCCC2)NC(=O)C12CCN(Cc1ccc(Oc3ccccc3)cc1)CC2.Cl (racemic) for C-C chemokine receptor type 5 (Homo sapiens).
7.28

Note, next up: CCCCN1C(=O)[C@H](CC2CCCCC2)NC(=O)C12CCN(Cc1ccc(Oc3ccc(C(=O)NC)cc3)cc1)CC2.Cl
7.48

Subsequent entry: CC(C)CC1NC(=O)C2(CCN(Cc3ccc(Oc4ccccc4)cc3)CC2)N(Cc2ccccc2)C1=O (racemic)
6.52

Now the same for CCCCN1C(=O)[C@H](CC2CCCCC2)NC(=O)C12CCN(Cc1ccc(Oc3ccc(O)cc3)cc1)CC2.Cl
7.38

What do we get for CCCCN1C(=O)[C@H](CC2CCCCC2)NC(=O)C12CCN(Cc1ccc(Oc3ccc(OC)cc3)cc1)CC2.Cl ?
6.89

Another compound to look at: CCCCN1C(=O)[C@H](CC(C)(C)C)NC(=O)C12CCN(Cc1ccc(Oc3ccccc3)cc1)CC2.Cl
7.10

Same for CCCCN1C(=O)[C@H](CC2CCCCC2)NC(=O)C12CCN(Cc1ccc(S(=O)(=O)c3ccccc3)cc1)CC2.Cl
7.07

Same again, this time with CCCCN1C(=O)[C@H](CC2CCCCC2)NC(=O)C12CCN(Cc1ccc(C(=O)c3ccccc3)cc1)CC2.Cl
7.09

Same thing, different compound: CCCCN1C(=O)C(CC(=O)OCc2ccccc2)NC(=O)C12CCN(Cc1ccc(Oc3ccccc3)cc1)CC2 (racemic)
6.23

---

- Test system: Liver microsomes
- Protocol Details: Half life in rat liver microsome at 0.2 mg/ml
- Type: ADME
Readout Label: t1/2 (min)
Just the number please, in min, no unit attached.

> print(dat)
                                   compound  readout.label  value
1  CCCCN1C(=O)C(CC2CCCC2)NC(=O)C12CCN(Cc1ccc(Oc3ccccc3)cc1)CC2.Cl (racemic)           t1/2     20
2  CCCCN1C(=O)C(CC2CCCCC2)NC(=O)C12CCN(Cc1ccc(Oc3ccccc3)cc1)CC2.Cl (racemic)           t1/2     24
3  CC(C)CC1NC(=O)C2(CCN(Cc3ccc(Oc4ccccc4)cc3)CC2)N(CC(C)C)C1=O.Cl (racemic)           t1/2     15

Consider now this further compound.
So what t1/2 did CCCCN1C(=O)[C@H](CC(C)(C)C)NC(=O)C12CCN(Cc1ccc(Oc3ccccc3)cc1)CC2.Cl get with Liver microsomes?
12

---

- Protocol Details: Metabolic stability in rat liver microsomes assessed as compound remaining at 0.5 mg/ml after 15 mins
- Format: ADME, Microsome
- Test Context: liver microsomes, read-out: Stability
Readout Label: remaining at 0.25 h (%)
A number alone suffices; assume %.

Endpoint output: remaining at 0.25 h of CCCCN1C(=O)[C@H](CC2CCCCC2)NC(=O)C12CCN(Cc1ccc(Oc3ccc(C(=O)O)cc3)cc1)CC2.Cl . Value?
22

---

Entries and their AUC
- Protocol Details: AUC in rat at 30 mg/kg, po
- Assay type: ADME, organism-based, Plasma
- Design: dose 30 mg/kg, route oral
- Test Context: plasma

Example results:
> print(dat)
                                   molecule  readout.label          value
1  CCCCN1C(=O)[C@H](CC2CCCCC2)NC(=O)C12CCN(Cc1ccc(Oc3ccc(O)cc3)cc1)CC2.Cl            AUC    195 ng·h/mL
2  CC(C)CC1NC(=O)C2(CCN(Cc3ccc(Oc4ccccc4)cc3)CC2)N(CCC(C)O)C1=O.Cl (racemic)            AUC  10500 ng·h/mL

Fill in the blank: the reported AUC of CCCCN1C(=O)C(CC2CCCCC2)NC(=O)C12CCN(Cc1ccc(Oc3ccccc3)cc1)CC2.Cl (racemic) is ____.
74.4 ng·h/mL

---

Overview of reported Papp across a group of compounds:
- Tested on: Caco-2
- Protocol Details: Apparent permeability from apical to basolateral side of human Caco-2 cells
- Type: ADME, cell-based
Output spec: scalar in ×10⁻⁶ cm/s, unitless text.

// below: answered compounds
> print(dat)
                                   compound  readout.label  value
1  CCCCN1C(=O)[C@H](CC2CCCCC2)NC(=O)C12CCN(Cc1ccc(Oc3ccc(C(=O)NC)cc3)cc1)CC2.Cl           Papp   3.51
2  CCCCN1C(=O)C(CC2CCCCC2)NC(=O)C12CCN(Cc1ccc(Oc3ccccc3)cc1)CC2.Cl (racemic)           Papp   0.15
3  CCCCN1C(=O)[C@H](CC2CCCCC2)NC(=O)C12CCN(Cc1ccc(Oc3ccc(C(=O)O)cc3)cc1)CC2.Cl           Papp     11
4  CCCCN1C(=O)C(CC(C)C)NC(=O)C12CCN(Cc1ccc(Oc3ccccc3)cc1)CC2.Cl (racemic)           Papp   1.51

I'd like to know its Papp. The compound in question is CCCCN1C(=O)[C@H](CC2CCCCC2)NC(=O)C12CCN(Cc1ccc(Oc3ccc(O)cc3)cc1)CC2.Cl
0.33

---

Attribute: IC50
- Target Under Test: C-C chemokine receptor type 5 (Homo sapiens)
- Protocol Details: Antagonist activity at human CCR5 receptor expressed in CHO cells assessed as inhibition of MIP-1-alpha-stmulated calcium mobilization

# example entries with known answers
> print(dat)
                                   compound  readout.label   value
1  CCCCN1C(=O)C(CCCC2CCCCC2)NC(=O)C12CCN(Cc1ccc(Oc3ccccc3)cc1)CC2.Cl (racemic)           IC50  > 3 µM
2  CCCCN1C(=O)C(CC2CCCCC2)NC(=O)C12CCN(c1ccc(C(=O)OCC)cc1)CC2 (racemic)           IC50  > 3 µM

As a next step, examine the compound that follows.
Which measured IC50 value corresponds to CC(C)CC1NC(=O)C2(CCN(Cc3ccc(Oc4ccccc4)cc3)CC2)N(CCC(C)O)C1=O.Cl (racemic) ?
> 3 µM
